Reference source: paper PMC5748275

biological target: CYP121A1 (Mycobacterium tuberculosis, UniProt P9WPP7); construct: made in house; format: binding; details: heme Soret peak position, ligand-free to apparent saturation
Sequence (P9WPP7 whole entry): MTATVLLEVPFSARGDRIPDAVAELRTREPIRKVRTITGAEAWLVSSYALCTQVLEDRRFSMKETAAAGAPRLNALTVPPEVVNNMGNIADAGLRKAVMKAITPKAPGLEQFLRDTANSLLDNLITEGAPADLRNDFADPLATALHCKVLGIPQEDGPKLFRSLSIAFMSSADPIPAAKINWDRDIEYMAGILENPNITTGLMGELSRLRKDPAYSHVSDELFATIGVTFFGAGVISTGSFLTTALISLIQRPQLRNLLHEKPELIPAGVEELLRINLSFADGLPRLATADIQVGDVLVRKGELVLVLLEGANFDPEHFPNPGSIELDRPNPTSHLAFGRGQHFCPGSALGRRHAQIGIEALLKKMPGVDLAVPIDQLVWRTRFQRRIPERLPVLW
readout_type: Soret peak shift

>>> recorded_result("Ic1ccc(-c2nn(-c3ccccc3)cc2Cn2ccnc2)cc1")
"416–422 nm"
>>> recorded_result("Brc1ccc(-c2nn(-c3ccccc3)cc2Cn2cncn2)cc1")
"416–417.5 nm"
>>> recorded_result("c1ccc(-c2nn(-c3ccccc3)cc2Cn2ccnc2)cc1")
"416–423.5 nm"
>>> recorded_result("N#Cc1ccc(-c2nn(-c3ccccc3)cc2Cn2ccnc2)cc1")
"416–418 nm"

Exam item: Fill in the blank: the reported Soret peak shift of Clc1ccc(-c2nn(-c3ccccc3)cc2Cn2cncn2)cc1 is ____.
Marked response: 416–421 nm

Exam item: Fill in the blank: the reported Soret peak shift of Brc1ccc(-c2nn(-c3ccccc3)cc2Cn2ccnc2)cc1 is ____.
Marked response: 416–420 nm

Exam item: Fill in the blank: the reported Soret peak shift of COc1ccc(-c2nn(-c3ccccc3)cc2Cn2cncn2)cc1 is ____.
Marked response: 416–420 nm

Exam item: Fill in the blank: the reported Soret peak shift of Cc1ccc(-c2nn(-c3ccccc3)cc2Cn2cncn2)cc1 is ____.
Marked response: 416–418 nm

###

target: CYP121A1 (Mycobacterium tuberculosis); construct: made in house; type: binding; details: heme Soret peak position, ligand-free to apparent saturation
readout_type: Soret peak shift

>>> recorded_result("N#Cc1ccc(-c2nn(-c3ccccc3)cc2Cn2cncn2)cc1 [8h]")
"no binding"
>>> recorded_result("Fc1ccc(-c2nn(-c3ccccc3)cc2Cn2ccnc2)cc1 [7b]")
"416–423.5 nm"
>>> recorded_result("Clc1ccc(-c2nn(-c3ccccc3)cc2Cn2ccnc2)cc1 [7c]")
"416–422 nm"
>>> recorded_result("c1ccc(-c2nn(-c3ccccc3)cc2Cn2cncn2)cc1 [8a]")
"416–422 nm"
>>> recorded_result("COc1ccc(-c2nn(-c3ccccc3)cc2Cn2ccnc2)cc1 [7e]")
"416–421 nm"

Exam item: Fill in the blank: the reported Soret peak shift of O=C(NCCn1ccnc1)c1cn(-c2ccccc2)nc1-c1ccc(Cl)cc1 [13c] is ____.
Marked response: no binding

Exam item: Fill in the blank: the reported Soret peak shift of Cc1ccc(-c2nn(-c3ccccc3)cc2Cn2ccnc2)cc1 [7d] is ____.
Marked response: 416–421.5 nm

###

molecular target: CYP121A1 (Mycobacterium tuberculosis, UniProt P9WPP7); construct: made in house; type: binding; details: heme Soret peak position, ligand-free to apparent saturation
readout_type: Soret peak shift

>>> recorded_result("Ic1ccc(-c2nn(-c3ccccc3)cc2Cn2cncn2)cc1")
"no binding"
>>> recorded_result("O=C(NCCn1ccnc1)c1cn(-c2ccccc2)nc1-c1ccc(F)cc1 [13b]")
"no binding"
>>> recorded_result("Fc1ccc(-c2nn(-c3ccccc3)cc2Cn2cncn2)cc1")
"416–423 nm"
